Entry source: patent US10196389B2

# targetOrTestSystem: human AMPK (α2β1γ1) (Homo sapiens, UniProt P54619+P54646+Q9Y478)
# Sequence (P54646 whole entry): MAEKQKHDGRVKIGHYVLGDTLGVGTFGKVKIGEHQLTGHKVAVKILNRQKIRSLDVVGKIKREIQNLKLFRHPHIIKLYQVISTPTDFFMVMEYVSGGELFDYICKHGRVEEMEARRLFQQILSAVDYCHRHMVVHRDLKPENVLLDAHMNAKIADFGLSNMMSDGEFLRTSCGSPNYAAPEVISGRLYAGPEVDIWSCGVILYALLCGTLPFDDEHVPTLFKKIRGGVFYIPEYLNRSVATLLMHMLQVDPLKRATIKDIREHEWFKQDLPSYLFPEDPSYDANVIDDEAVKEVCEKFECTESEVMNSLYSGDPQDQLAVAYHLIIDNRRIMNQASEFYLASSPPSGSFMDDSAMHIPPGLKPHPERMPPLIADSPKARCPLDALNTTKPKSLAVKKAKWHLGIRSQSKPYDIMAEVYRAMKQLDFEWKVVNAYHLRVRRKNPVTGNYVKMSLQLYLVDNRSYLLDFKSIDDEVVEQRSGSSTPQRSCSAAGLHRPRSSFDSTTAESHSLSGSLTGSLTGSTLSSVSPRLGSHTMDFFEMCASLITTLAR
# Sequence (Q9Y478 whole entry): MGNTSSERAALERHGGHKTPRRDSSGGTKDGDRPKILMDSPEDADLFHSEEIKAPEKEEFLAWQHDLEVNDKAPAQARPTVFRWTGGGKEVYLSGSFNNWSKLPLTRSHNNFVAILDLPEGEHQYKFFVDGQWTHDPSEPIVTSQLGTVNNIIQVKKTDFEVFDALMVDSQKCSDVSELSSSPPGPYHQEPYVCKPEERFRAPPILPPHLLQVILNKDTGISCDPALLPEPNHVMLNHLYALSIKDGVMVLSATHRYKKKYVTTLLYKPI
# Sequence (P54619 whole entry): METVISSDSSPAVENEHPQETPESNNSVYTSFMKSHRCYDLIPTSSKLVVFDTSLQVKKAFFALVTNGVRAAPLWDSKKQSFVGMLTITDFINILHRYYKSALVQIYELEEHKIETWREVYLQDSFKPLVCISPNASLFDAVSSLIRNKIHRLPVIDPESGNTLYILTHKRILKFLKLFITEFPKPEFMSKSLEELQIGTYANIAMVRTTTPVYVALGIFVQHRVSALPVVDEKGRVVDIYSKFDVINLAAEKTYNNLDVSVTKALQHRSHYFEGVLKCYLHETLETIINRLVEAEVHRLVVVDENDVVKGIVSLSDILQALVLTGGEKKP
# assayDetails: AMPK (α2β1γ1) activation at molecular level, HTRF KinEASE-STK S1 kinase assay
# testParameters: activation of human AMPK (α2β1γ1), 4 μM ATP, 45 min at 30° C.
# Description: 1. Purpose of the experiment: To screen small molecule compounds that can activate AMPK (α2β1γ1). 2. Principle of the experiment: The peptide as substrate contains sites which can be AMPK phosphorylated. One terminal of the peptide is linked with biotin in the reaction system (containing 2 mM MgCl2, 400 μM DTT, 160 nM substrate peptide, 4 μM ATP and 1.6 nM AMPK). […] The final AMPK activity is expressed as a ratio of the 665 nm wavelength reading to the 615 nm wavelength reading (665 nm/615 nm). […]
Below, each entry is listed alongside its reported EC50.
Hi! Could you send only the number? It should be in µM, unit omitted.

{"columns": ["compound", "targetOrTestSystem", "EC50 (µM)"],
 "data": [
  ["COc1ccc(CNC(=O)c2ccc(CN3C=C4C(=O)N(c5ccc(F)c(C(F)(F)F)c5)N=C4CC3)cc2)cc1OC", "human AMPK (α2β1γ1) (Homo sapiens, UniProt P54619+P54646+Q9Y478)", 2.1],
  ["COc1cc(CNC(=O)c2ccc(CN3C=C4C(=O)N(c5ccc(F)c(C(F)(F)F)c5)N=C4CC3)cc2)cc(OC)c1OC", "human AMPK (α2β1γ1) (Homo sapiens, UniProt P54619+P54646+Q9Y478)", 7.5],
  ["O=C(NCc1ccccc1)c1ccc(CN2C=C3C(=O)N(c4ccc(F)c(C(F)(F)F)c4)N=C3CC2)cc1", "human AMPK (α2β1γ1) (Homo sapiens, UniProt P54619+P54646+Q9Y478)", 8.6],
  ["COC(=O)c1ccc(CN2CCC3=NN(c4ccc(F)c(C(F)(F)F)c4)C(=O)C3C2)cc1 (centres unmarked)", "human AMPK (α2β1γ1) (Homo sapiens, UniProt P54619+P54646+Q9Y478)", 9.8],
  ["COc1ccc(C(C)(C)NC(=O)c2ccc(CN3C=C4C(=O)N(c5ccc(F)c(C(F)(F)F)c5)N=C4CC3)cc2)cc1OC", "human AMPK (α2β1γ1) (Homo sapiens, UniProt P54619+P54646+Q9Y478)", 4]
]}

Which EC50 reading was recorded for the compound `COc1cccc(CNC(=O)c2ccc(CN3C=C4C(=O)N(c5ccc(F)c(C(F)(F)F)c5)N=C4CC3)cc2)c1` ?
5.3

So what does the record say about EC50 for `O=C(NCc1ccc(OC(F)F)c(OC(F)F)c1)c1ccc(CN2C=C3C(=O)N(c4ccc(F)c(C(F)(F)F)c4)N=C3CC2)cc1` ?
5.4

Dear colleague, I am looking for the recorded EC50 of the following compound: `O=C(NCC1CCCCC1)c1ccc(CN2C=C3C(=O)N(c4ccc(F)c(C(F)(F)F)c4)N=C3CC2)cc1`
5.8

// EC50 lookup, key: Nc1ncnc2c1ncn2[C@@H]1O[C@H](COP(=O)(O)O)[C@@H](O)[C@H]1O [AMP, reference compound]
0.3

# get_value(readout='EC50', item= `COc1cc(F)c(CNC(=O)c2ccc(CN3C=C4C(=O)N(c5ccc(F)c(C(F)(F)F)c5)N=C4CC3)cc2)cc1OC` )
4.4

Name the recorded EC50 for `COc1ccc(C2(NC(=O)c3ccc(CN4C=C5C(=O)N(c6ccc(F)c(C(F)(F)F)c6)N=C5CC4)cc3)CC2)cc1OC` .
3.2
